Values from ChEMBL document CHEMBL3885861

organism: Rattus norvegicus; test: Open TG-GATES - Regimen: Single; assay type: toxicity, organism-based, Sprague-Dawley; set-up: regimen Single, gender Male, age 6 weeks; conditions: in vivo, po, 0 mg/kg, 24 h, tissue Blood, route gavage, dose level Control
Would you mind telling me the reported Bas of each entry?
Write the quantity with the unit trailing the number.

molecule	Bas
O=C(OC[C@H]1O[C@@H](OC(=O)c2cc(O)c(O)c(OC(=O)c3cc(O)c(O)c(O)c3)c2)[C@H](OC(=O)c2cc(O)c(O)c(OC(=O)c3cc(O)c(O)c(O)c3)c2)[C@@H](OC(=O)c2cc(O)c(O)c(OC(=O)c3cc(O)c(O)c(O)c3)c2)[C@@H]1OC(=O)c1cc(O)c(O)c(OC(=O)c2cc(O)c(O)c(O)c2)c1)c1cc(O)c(O)c(OC(=O)c2cc(O)c(O)c(O)c2)c1	0%
CC(C)NNC(=O)c1ccncc1	0%

For every record below, what is its Bas?
1. CS(=O)(=O)O.Cc1ccc(NC(=O)c2ccc(CN3CCN(C)CC3)cc2)cc1Nc1nccc(-c2cccnc2)n1 [IMATINIB MESYLATE]
2. CN/C(=N/CCSCc1nc[nH]c1C)NC#N
3. Cc1nnc2n1-c1ccc(Cl)cc1C(c1ccccc1Cl)=NC2
4. COC(=O)C1=C(C)NC(C)=C(C(=O)OC)C1c1ccccc1[N+](=O)[O-]

[out]
1: 0%; 2: 0.2%; 3: 0%; 4: 0%
